Tested on: HepG2 cells
method-summary: MTT cytotoxicity assay
assay-conditions: Homo sapiens, HepG2, 48 h, read-out: IC50 HepG2
assay-endpoint: pIC50
Give bare numbers, as −log10 of the molar value.

## Input Report pIC50 for N#CC[C@H](C1CCCC1)n1cc(-c2ncnc3[nH]ccc23)cn1 [Ruxolitinib, reference compound] please.
## Output 4.46

---

Measured pIC50 (JAK2 (Homo sapiens, UniProt O60674))
Give bare numbers, as −log10 of the molar value.

Cc1cccc(N2CCN(CC3C(=O)OC4CC5(C)CCCC(C)C56OC6C43)CC2)c1 (centres unmarked) [SL31]: 7.05
CC1CCCC2(C)CC3OC(=O)C(CN4CCN(c5ccccc5)CC4)C3C3OC132 (centres unmarked) [SL10]: 7.90
COc1ccc(CN2CC3C(=O)OC4CC5(C)CCCC(C)C5(O)C2C43)cc1OC (centres unmarked) [SL8]: 7.06
CC1CCCC2(C)CC3OC(=O)C4CN(CCc5c[nH]c6ccccc56)C(C34)C12O (centres unmarked) [SL33]: 7.10

Let us examine a further case.
## Input Report pIC50 for CC1CCCC2(C)CC3OC(=O)C(CN4CCN(c5ccc(F)cc5)CC4)C3C3OC132 (centres unmarked) [SL14] please.
## Output 7.24
